target: one or more of HDAC-4, HDAC-5, HDAC-6, HDAC-7, HDAC-8, HDAC-9, HDAC-10 and HDAC-11; experiment: Inhibition of histone deacetylase enzymatic activity (summary statement over isoforms); settings: Table 3, selected examples; HDAC isoform not given
# IC50 annotations

Q. Suppose we examine the compound O=C(NO)C(c1ccccc1)c1cccc(OCc2cccc(C(F)(F)F)c2)c1 (stereo not drawn) [Compound 3-42] ; what IC50 value has been reported?
A. < 1000 nM

Q. Suppose we examine the compound Cn1cnc(S(=O)(=O)N2CCN(C(C(=O)NO)c3ccccc3)CC2)c1 (stereo not drawn) [Compound 2-38] ; what IC50 value has been reported?
A. < 1000 nM

Q. Suppose we examine the compound O=C(NO)C(c1ccccc1)c1ccc(-c2ccccc2)cc1 (stereo not drawn) [Compound 1-32] ; what IC50 value has been reported?
A. < 1000 nM

Q. Suppose we examine the compound O=C(NO)C(c1ccccc1)N1CCN(C(=O)Cc2ccccc2)CC1 (stereo not drawn) [Compound 2-28] ; what IC50 value has been reported?
A. 1000 to 15000 nM

Q. Suppose we examine the compound O=C(NO)C(c1ccccc1)c1ccc(OCc2ccccc2Cl)cc1 (stereo not drawn) [Compound 3-65] ; what IC50 value has been reported?
A. < 1000 nM

Q. Suppose we examine the compound O=C(NO)C(c1ccccc1)c1ccc(OCc2ccccc2F)cc1 (stereo not drawn) [Compound 3-60] ; what IC50 value has been reported?
A. < 1000 nM

Q. Suppose we examine the compound O=C(NO)C(c1ccccc1)N1CCN(S(=O)(=O)c2ccccc2)CC1 (stereo not drawn) [Compound 5-8] ; what IC50 value has been reported?
A. < 1000 nM

src = patent US9096565B2
